B1: Hairpin Ribozyme (parent)
chain: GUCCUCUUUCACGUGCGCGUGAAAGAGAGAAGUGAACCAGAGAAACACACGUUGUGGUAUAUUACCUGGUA

Variants of: B1
MEASUREMENT PROTOCOL: self-cleavage, relative activity (ratio to wild type); higher = more cleavage; co-transcriptional
Definition: the class of an entry is the range in low bin (below 0.1), mid bin (0.1 to below 0.2), high bin (0.2 or more) that contains its self-cleavage.

Consider the worked cases shown below.
>  <VARIANT IDENTIFIER>
U14C

>  <LABEL>
high bin

$$$$
>  <VARIANT IDENTIFIER>
C18U A49C

>  <LABEL>
mid bin

$$$$
>  <VARIANT IDENTIFIER>
G42C A45U

>  <LABEL>
mid bin

$$$$
>  <VARIANT IDENTIFIER>
U8A A31U

>  <LABEL>
mid bin

$$$$

[in] Record G42C U63G — which class?
[out] high bin

[in] Record C16G A43C — which class?
[out] mid bin

[in] Record G19A G40U — which class?
[out] mid bin

[in] Record U20G C66A — which class?
[out] low bin

[in] Record G19A A44C — which class?
[out] low bin

[in] Record G1A C3A — which class?
[out] mid bin

[in] Record C10G G68A — which class?
[out] mid bin

[in] Record U55C U63G — which class?
[out] mid bin
